TEST SYSTEM: PDGF-BB (UniProt P01127 82-190)
Sequence (P01127 82-190): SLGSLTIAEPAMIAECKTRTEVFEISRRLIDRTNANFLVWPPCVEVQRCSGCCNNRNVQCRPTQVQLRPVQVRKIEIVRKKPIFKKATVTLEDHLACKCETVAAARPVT
ASSAY SUMMARY: SPR; SPR: PBS (137 mM NaCl, 2.7 mM KCl, 8 mM Na2HPO4, 2 mM KH2PO4) pH 7.4, 25 °C, protein on CM5; EMSA: 50 mM Tris-HCl, 100 mM KCl, pH 7.5, room temperature, 1 uM RNA, 15% PAGE in TBE
EXPERIMENTAL CONDITIONS: protein: commercial; chain copies: 2; parallel G4
READOUT TYPE: pKd
Scale: pKd equals -log10([C]), with [C] in mol/L.

Input GGAGGAGGGGGAGGAGGA (structured_RNA) [VEGFA 5' UTR G4] . Output pKd: 6.96

get_value(item= GGGCACUCGGGUAGGGGGAGGACUAGGG (structured_RNA) [PDGFB intronic G4_2] , readout=pKd) returns 7.52

pKd for GGGGAAGGGGAGCUGGGGCGCAGCGGG (structured_RNA) [PDGFA intronic G4_1] is 7.52

Noted for GGGGGCAGGGCGCAGGAGGGAGAGGGGG (structured_RNA) [VEGFA intronic G4_2] : its pKd reads 7.52

GGGCGCGGGGUUUGGGGUGGG (structured_RNA) [PDGFB intronic G4_1] has a reported pKd of 7.40

Reported pKd of GGGUUUGGUUGGGCACAGGGCACGGG (structured_RNA) [PDGFB intronic G4_3] : 7.22

# pKd (binder: GGGGUGCGGGGAGCGGGGAAGGG (structured_RNA) [PDGFA intronic G4_2] ) is 7.52
